Each recorded value in this set is attributed to patent US5733719A.

System: Grans
measurement_description: Peptidases to distinguish leukemia from non-leukemia, granulocytes
Type: cell-based, human
Set-up: unit not given here
measurement_context: J5 11/27/91 AML
assay_metric: enzyme activity
Lab note: write the figure by itself, no unit.

compound: C[C@H](N)C(=O)Nc1ccc2c(c1)Oc1cc(NC(=O)[C@H](C)N)ccc1C21OC(=O)c2ccccc21 [ALA, (Ala)2 Rho 110]
enzyme activity: 194.85
--
compound: NCCCC[C@H](N)C(=O)Nc1ccc2c(c1)Oc1cc(NC(=O)[C@@H](N)CCCCN)ccc1C21OC(=O)c2ccccc21 [LYS, (H--L--Lys)2 Rho 110-4TFA]
enzyme activity: 14.86
--
compound: NCC(=O)Nc1ccc2c(c1)Oc1cc(NC(=O)CN)ccc1C21OC(=O)c2ccccc21 [GLY, (Gly)2 Rho 110]
enzyme activity: 56.33

q: Form field: reported enzyme activity of O=C1OC2(c3ccc(NC(=O)[C@@H]4CCCN4)cc3Oc3cc(NC(=O)[C@@H]4CCCN4)ccc32)c2ccccc21 [PRO, (H--L--Pro)2 Rho 110-2TFA]
a: 5.92
